test system: HeLa
GI50 by entry:
Remember to follow the number with its unit.

A selection of reference data follows.
COMPOUND: CCOc1c(Br)cc(C2C(C#N)=C(N)Oc3cc(C)n(C)c(=O)c32)cc1OC (stereo not shown)
GI50: 1100 nM
//
COMPOUND: COc1cc(C2C(C#N)=C(N)Oc3cc(C)n(C)c(=O)c32)cc(Br)c1O (stereo not shown)
GI50: 2700 nM
//
COMPOUND: COc1cc(C2C(C#N)=C(N)Oc3c2c(=O)n(C)c2ccccc32)cc(Br)c1OC (stereo not shown)
GI50: 14 nM

Switching to the query record.
Missing value: GI50, HeLa, entry Cc1cc2c(c(=O)n1C)C(c1ccc(F)c(Br)c1)C(C#N)=C(N)O2 (stereo not shown) . Fill in?
6400 nM

###

A set of molecules tested on HeLa, with measured log10 of GI50:
Recorded GI50 (log10, nM)

Use the examples below as a reference point.
MOLECULE: Cc1cc2c(c(=O)n1C)C(c1ccc(N(C)C)c(Br)c1)C(C#N)=C(N)O2 (centres unmarked)
log10 of GI50: 2.52
//
MOLECULE: Cc1cc2c(c(=O)n1C)C(c1ccc(Cl)c(Cl)c1)C(C#N)=C(N)O2 (centres unmarked)
log10 of GI50: 4.26
//
MOLECULE: Cn1c(=O)c2c(c3ccccc31)OC(N)=C(C#N)C2c1cncc(Br)c1 (centres unmarked)
log10 of GI50: 1.11
//
MOLECULE: Cn1c(=O)c2c(c3ccccc31)OC(N)=C(C#N)C2c1cccc(Br)c1 (centres unmarked)
log10 of GI50: 2.87
//
MOLECULE: COc1cc(C2C(C#N)=C(N)Oc3cc(C)n(C)c(=O)c32)cc(Br)c1OC (centres unmarked)
log10 of GI50: 2.76
//
MOLECULE: COc1cc(C2C(C#N)=C(N)Oc3cc(C)n(C)c(=O)c32)cc(Br)c1OC(C)=O (centres unmarked)
log10 of GI50: 3.54

For the molecule shown here, COc1ccc(C2C(C#N)=C(N)Oc3c2c(=O)n(C)c2ccccc32)cc1Br (centres unmarked) , give the reported log10 of GI50.
2.61

# input molecule: COc1cc(C2C(C#N)=C(N)Oc3c2c(=O)n(C)c2ccccc32)cc([N+](=O)[O-])c1O (centres unmarked) ; wanted: its log10 of GI50
2.80

Given COc1cc(C2C(C#N)=C(N)Oc3c2c(=O)n(C)c2ccccc32)cc(Br)c1O (centres unmarked) , state its recorded log10 of GI50.
1.67

I would be grateful if you could share the reported log10 of GI50 for Cc1cc2c(c(=O)n1C)C(c1cccc(Br)c1)C(C#N)=C(N)O2 (centres unmarked) .
3.81

Item COc1ccc(CCn2c(C)cc3c(c2=O)C(c2cc(OC)c(OC)c(OC)c2)C(C#N)=C(N)O3)cc1OC (centres unmarked) has what recorded log10 of GI50?
4.36

Record request: log10 of GI50 value, item Cn1c(=O)c2c(c3ccccc31)OC(N)=C(C#N)C2c1cc(Br)cc(Br)c1 (centres unmarked)
1.89

Report log10 of GI50 for Cn1c(=O)c2c(c3ccccc31)OC(N)=C(C#N)C2c1cc(Br)c(O)c(Br)c1 (centres unmarked) please.
2.43

Recorded log10 of GI50 of COc1cc(C2C(C#N)=C(N)Oc3c2c(=O)n(C)c2ccccc32)cc(Br)c1OC(C)=O (centres unmarked) , please.
2.26

Which log10 of GI50 value is on record for Cn1c(=O)c2c(c3ccccc31)OC(N)=C(C#N)C2c1ccc(F)c(Br)c1 (centres unmarked) ?
2.43

log10 of GI50 for COc1cc(C2C(C#N)=C(N)Oc3c2c(=O)n(C)c2ccccc32)cc(OC)c1OC (centres unmarked) ?
2.38
